Tested on: Chenopodium album (CHEAL), common lambsquarters
Method notes: Postemergence herbicide evaluation, growth of Chenopodium album (CHEAL)
Type: in vivo
Experimental setup: Chenopodium album, post-emergence, 504 h, 280 g ae/ha, 21 DAA; read-out: Ave. CHEAL, percent reduction in plant size relative to the untreated control
Measured metric: pest or weed control at 280 g/ha (%)
Respond with the bare value in %.

In [3]: df
Out[3]:
                                   molecule  numeric_readout
0  O=C(COc1ccc(Cl)cc1Cl)Nc1ccon1 [Compound D2]               78
1  O=C(COc1ccc(Cl)cc1Cl)Oc1ncc(Cl)cn1 [Compound E13]             96.5
2  O=C(COc1ccc(Cl)cc1Cl)O/N=C1\CCCc2ccccc21 [Compound A25]               75
3  C/C(=N\OC(=O)COc1ccc(Cl)cc1Cl)c1cccnc1 [Compound A26]             87.5
4  N/C(=N\OC(=O)COc1ccc(Cl)cc1Cl)c1cccnc1 [Compound A4]               63

# molecule Cc1nccc(NC(=O)COc2ccc(Cl)cc2Cl)c1C [Compound D26] ; its pest or weed control at 280 g/ha = 92.5

# molecule N/C(=N\OC(=O)COc1ccc(Cl)cc1Cl)c1ccccc1 [Compound A3] ; its pest or weed control at 280 g/ha = 85

# molecule C/C(=N\OC(=O)COc1ccc(Cl)cc1Cl)c1ccccc1Cl [Compound A24] ; its pest or weed control at 280 g/ha = 98.5

# molecule O=C(COc1ccc(Cl)cc1Cl)Oc1cccnn1 [Compound E2] ; its pest or weed control at 280 g/ha = 63

* * *

System: Ambrosia artemisiifolia (AMBEL), common ragweed
Method notes: Postemergence herbicide evaluation, growth of Ambrosia artemisiifolia (AMBEL)
Type: in vivo
Experimental setup: Ambrosia artemisiifolia, post-emergence, 168 h, 280 g ae/ha, 7 DAA; read-out: AVE. AMBEL, percent reduction in plant size relative to the untreated control
# if value of pest or weed control at 280 g/ha reaches 70%, tag fulfilled; if it stays below, tag not fulfilled

Example results:
>>> df
                    smiles_representation     class_name
0  C/C(=N\OC(=O)COc1ccc(Cl)cc1Cl)c1ccccc1  not fulfilled
1            CC(C)ONC(=O)COc1ccc(Cl)cc1Cl      fulfilled
2     O=C(COc1ccc(Cl)cc1Cl)O/N=C/c1ccccc1  not fulfilled
3  C/C(=N\OC(=O)COc1ccc(Cl)cc1Cl)c1cccnc1      fulfilled
4  N/C(=N\OC(=O)COc1ccc(Cl)cc1Cl)c1ccccc1  not fulfilled
5     O=C(COc1ccc(Cl)cc1Cl)O/N=C/c1ccccn1      fulfilled

Check if pest or weed control at 280 g/ha >= 70% (inclusive). Item: "O=C(COc1ccc(Cl)cc1Cl)Oc1cncnc1"
fulfilled

Check if pest or weed control at 280 g/ha >= 70% (inclusive). Item: "Cc1nccc(NC(=O)COc2ccc(Cl)cc2Cl)c1C"
fulfilled

* * *

Tested on: Chenopodium album (CHEAL), common lambsquarters
Method notes: Postemergence herbicide evaluation, growth of Chenopodium album (CHEAL)
Format: in vivo
Experimental setup: Chenopodium album, post-emergence, 504 h, 280 g ae/ha, 21 DAA, percent reduction in plant size relative to untreated control; read-out: Ave. CHEAL
Measured metric: pest or weed control at 280 g/ha
The reply should consist of the numeric value with the unit placed after it.

Guide cases for pest or weed control at 280 g/ha, answers given:
In [3]: df
Out[3]:
                      smiles_representation  result
0  O=C(COc1ccc(Cl)cc1Cl)O/N=C/c1ccc(/C=N/OC(=O)COc2ccc(Cl)cc2Cl)cc1     68%
1           O=C(COc1ccc(Cl)cc1Cl)NOc1ccccc1     70%
2          O=C(COc1ccc(Cl)cc1Cl)NOCc1ccccc1     75%
3       Cc1cc(OC(=O)COc2ccc(Cl)cc2Cl)n(C)n1     58%
4  N/C(=N\OC(=O)COc1ccc(Cl)cc1Cl)c1ccc(/C(N)=N/OC(=O)COc2ccc(Cl)cc2Cl)cc1     40%

# molecule "O=C(COc1ccc(Cl)cc1Cl)ON1CCCCC1" ; its pest or weed control at 280 g/ha = 80%

# molecule "Cc1ccc(S(=O)(=O)NC(=O)COc2ccc(Cl)cc2Cl)cc1" ; its pest or weed control at 280 g/ha = 65%

# molecule "CS/C(C)=N\OC(=O)COc1ccc(Cl)cc1Cl" ; its pest or weed control at 280 g/ha = 83%

# molecule "CC(=O)/C(C)=N/OC(=O)COc1ccc(Cl)cc1Cl" ; its pest or weed control at 280 g/ha = 83%

* * *

Test system: weeds ABUTH, AMATA, AMBEL, CHEAL, ERICA
Method notes: Postemergence herbicide evaluation, overall average % weed control (ABUTH, AMATA, AMBEL, CHEAL, ERICA)
Type: in vivo
Experimental setup: post-emergence, 336 h, read-out: Overall Ave % Weed Control
# pest or weed control at 560 g/ha listing for each entry below
Respond with the bare value in %.

Guide cases for pest or weed control at 560 g/ha, answers given:
                                   compound  numeric_readout
0  O=C(COc1ccc(Cl)cc1Cl)OCc1ccc(COC(=O)COc2ccc(Cl)cc2Cl)cc1 [Compound B1]               29
1  O=C(COc1ccc(Cl)cc1Cl)OCCOCCOC(=O)COc1ccc(Cl)cc1Cl [Compound B2]               89
2  O=C(COc1ccc(Cl)cc1Cl)n1ncc2ccccc21 [Compound D3]               74

Consider the additional compound presented here.
# compound O=C(COc1ccc(Cl)cc1Cl)Nc1ccncc1 [Compound D1] ; its pest or weed control at 560 g/ha = 87

* * *

Test system: weeds ABUTH, AMATA, AMBEL, CHEAL, ERICA
Method notes: Postemergence herbicide evaluation, overall average % weed control across ABUTH, AMATA, AMBEL, CHEAL and ERICA
Assay type: in vivo
Experimental setup: post-emergence, 336 h, read-out: Overall Ave % Weed Control
# if value of pest or weed control at 560 g/ha reaches 90%, tag class 1; if it stays below, tag class 0

>>> df
                                   molecule  class_name
0  O=C(COc1ccc(Cl)cc1Cl)OCCOC(=O)COc1ccc(Cl)cc1Cl [Compound B9]     class 0
1  O=C(COc1ccc(Cl)cc1Cl)OCCOCCOCCOC(=O)COc1ccc(Cl)cc1Cl [Compound B13]     class 0
2  O=C(COc1ccc(Cl)cc1Cl)OCCOCCOCCOCCOC(=O)COc1ccc(Cl)cc1Cl [Compound B14]     class 1
3  O=C(COc1ccc(Cl)cc1Cl)OCCCOC(=O)COc1ccc(Cl)cc1Cl [Compound B10]     class 0

Check if pest or weed control at 560 g/ha >= 90% (inclusive). Item: O=C(COc1ccc(Cl)cc1Cl)OCCCCCOC(=O)COc1ccc(Cl)cc1Cl [Compound B8]
class 1

* * *

System: Abutilon theophrasti (ABUTH), velvetleaf
Method notes: Postemergence herbicide evaluation, growth of Abutilon theophrasti (ABUTH)
Format: in vivo
Experimental setup: Abutilon theophrasti, post-emergence, 504 h, read-out: AVE. ABUTH
# pest or weed control at 280 g/ha listing for each entry below

# compound "O=C(COc1ccc(Cl)cc1Cl)OCCCOC(=O)COc1ccc(Cl)cc1Cl" ; its pest or weed control at 280 g/ha = 25%

# compound "O=C(COc1ccc(Cl)cc1Cl)OCCCCCCOC(=O)COc1ccc(Cl)cc1Cl" ; its pest or weed control at 280 g/ha = 55%

# compound "O=C(COc1ccc(Cl)cc1Cl)Nc1ccc(Cl)cc1" ; its pest or weed control at 280 g/ha = 35%

# compound "O=C(COc1ccc(Cl)cc1Cl)OCCOCCOCCOC(=O)COc1ccc(Cl)cc1Cl" ; its pest or weed control at 280 g/ha = 67.5%

# compound "O=C(COc1ccc(Cl)cc1Cl)Oc1ccc(Cl)cc1" ; its pest or weed control at 280 g/ha = 98%

# compound "O=C(COc1ccc(Cl)cc1Cl)OCCOC(=O)COc1ccc(Cl)cc1Cl" ; its pest or weed control at 280 g/ha = 98.5%

# compound "N#C/C(=N\OC(=O)COc1ccc(Cl)cc1Cl)c1ccccc1" ; its pest or weed control at 280 g/ha = 80%

# compound "O=C(COc1ccc(Cl)cc1Cl)n1cnc2ccccc21" ; its pest or weed control at 280 g/ha = 98%

* * *

System: Ambrosia artemisiifolia (AMBEL), common ragweed
Method notes: Postemergence herbicide evaluation, growth of Ambrosia artemisiifolia (AMBEL)
Format: in vivo
Experimental setup: Ambrosia artemisiifolia, post-emergence, 336 h, 280 g ae/ha, 14 DAA, percent reduction in plant size vs untreated control; read-out: AVE. AMBEL
# pest or weed control at 280 g/ha listing for each entry below
Respond with the bare value in %.

Guide cases for pest or weed control at 280 g/ha, answers given:
>>> print(df.to_string())
                      smiles_representation                           measured_target  numeric_readout
0  O=C(COc1cc(Cl)cc(Cl)c1)OCCCOC(=O)COc1ccc(Cl)cc1Cl  Ambrosia artemisiifolia (AMBEL), common ragweed             57.5
1       Cc1nc2ccccc2n1C(=O)COc1ccc(Cl)cc1Cl  Ambrosia artemisiifolia (AMBEL), common ragweed             67.5
2       O=C(COc1ccc(Cl)cc1Cl)ONC(=O)C1CCCC1  Ambrosia artemisiifolia (AMBEL), common ragweed              100
3  C/C(=N\OC(=O)COc1ccc(Cl)cc1Cl)C(=O)c1ccccc1  Ambrosia artemisiifolia (AMBEL), common ragweed             67.5
4      O=C(COc1ccc(Cl)cc1Cl)NOCc1ccc(Cl)cc1  Ambrosia artemisiifolia (AMBEL), common ragweed               75
5            O=C(COc1ccc(Cl)cc1Cl)Oc1cccnc1  Ambrosia artemisiifolia (AMBEL), common ragweed               90

Consider the additional compound presented here.
# compound "CCN(CC)OC(=O)COc1ccc(Cl)cc1Cl" ; its pest or weed control at 280 g/ha = 80

The reported numbers originate from patent US20260042731A1.
